# test.system: UniProt:P08581
# Sequence (P08581 whole entry): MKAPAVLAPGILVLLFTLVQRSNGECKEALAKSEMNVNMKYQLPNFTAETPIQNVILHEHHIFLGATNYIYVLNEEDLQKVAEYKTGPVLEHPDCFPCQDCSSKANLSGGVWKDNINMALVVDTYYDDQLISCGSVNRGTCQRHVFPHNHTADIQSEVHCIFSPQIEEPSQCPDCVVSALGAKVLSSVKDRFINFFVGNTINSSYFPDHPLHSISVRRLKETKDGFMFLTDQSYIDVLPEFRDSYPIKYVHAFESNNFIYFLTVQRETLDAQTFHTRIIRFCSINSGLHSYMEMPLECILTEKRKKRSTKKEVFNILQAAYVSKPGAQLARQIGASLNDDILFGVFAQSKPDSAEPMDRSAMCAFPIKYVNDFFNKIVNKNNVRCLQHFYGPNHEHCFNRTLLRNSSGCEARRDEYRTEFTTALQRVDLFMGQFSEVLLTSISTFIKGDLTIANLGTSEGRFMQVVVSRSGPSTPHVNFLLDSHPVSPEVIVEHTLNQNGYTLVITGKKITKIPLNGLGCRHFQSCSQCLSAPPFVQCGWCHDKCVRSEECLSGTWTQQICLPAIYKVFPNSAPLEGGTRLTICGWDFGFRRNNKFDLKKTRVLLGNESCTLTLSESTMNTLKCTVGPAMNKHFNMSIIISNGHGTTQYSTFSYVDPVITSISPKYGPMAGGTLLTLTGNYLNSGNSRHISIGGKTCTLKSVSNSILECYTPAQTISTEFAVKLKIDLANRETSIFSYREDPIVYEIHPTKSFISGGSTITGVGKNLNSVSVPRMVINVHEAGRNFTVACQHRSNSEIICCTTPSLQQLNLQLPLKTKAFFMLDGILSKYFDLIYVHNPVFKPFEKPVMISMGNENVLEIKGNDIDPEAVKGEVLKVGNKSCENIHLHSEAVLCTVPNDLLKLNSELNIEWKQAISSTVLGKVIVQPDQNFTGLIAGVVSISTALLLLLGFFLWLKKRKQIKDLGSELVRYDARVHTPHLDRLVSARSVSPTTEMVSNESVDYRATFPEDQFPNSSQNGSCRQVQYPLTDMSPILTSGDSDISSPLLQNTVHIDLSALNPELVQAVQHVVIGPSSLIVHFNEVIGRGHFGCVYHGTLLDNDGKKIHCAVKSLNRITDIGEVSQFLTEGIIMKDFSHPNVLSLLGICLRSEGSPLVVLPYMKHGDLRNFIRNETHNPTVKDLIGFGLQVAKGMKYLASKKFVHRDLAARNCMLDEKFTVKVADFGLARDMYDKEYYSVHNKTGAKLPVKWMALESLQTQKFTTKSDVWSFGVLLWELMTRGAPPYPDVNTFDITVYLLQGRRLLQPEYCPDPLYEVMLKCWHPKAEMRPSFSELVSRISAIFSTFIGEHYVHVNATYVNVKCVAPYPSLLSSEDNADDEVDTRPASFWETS
recorded.endpoint: IC50
The reply must contain the numeric value and, after it, the unit.

Qu. Give IC50 for the following molecule: COc1cc2c(Oc3ccc(NC(=O)NS(=O)(=O)Cc4ccc(F)cc4)cc3F)ccnc2cc1OCCCN1CCCC1
Ans. 1.98 nM

====

# System: HT-29
# method: Cytotoxicity in human HT-29 cells assessed as reduction in cell viability incubated for 72 hrs by MTT assay
# protocol.conditions: HT-29, 72 h
pIC50: −log10 of the molar value.
We use 6 as the dividing line for pIC50: on or above the line is 1, below is -1.

Example entries begin here.
• CCCCOc1cc2nccc(Oc3ccc(NC(=O)NS(=O)(=O)Cc4ccc(F)cc4)cc3F)c2cc1OC = -1
• COc1cc2nccc(Oc3ccc(NC(=O)NS(=O)(=O)Cc4ccc(C)cc4)cc3F)c2cc1OC = -1
• COc1cc2nccc(Oc3ccc(NC(=O)NS(=O)(=O)Cc4ccccc4)cc3)c2cc1OC = -1
• COc1cc2nccc(Oc3ccc(NC(=O)NS(=O)(=O)Cc4cccc(C)c4)cc3F)c2cc1OC = -1
• COc1cc2nccc(Oc3ccc(NC(=O)NS(=O)(=O)Cc4ccc(Br)cc4)cc3F)c2cc1OC = -1

Moving on to another compound below.
Qu. Exam item: decide whether the reported pIC50 for COc1cc2c(Oc3ccc(NC(=O)NS(=O)(=O)Cc4ccc(F)cc4)cc3F)ccnc2cc1OCCCN1CCCC1 is at least 6.
Ans. 1
